Please respond with reported IC50 for every item in the list.
# target_system: recombinant human DAO (diamine oxidase) (Homo sapiens, UniProt P19801)
# Construct: purchased R&D systems
# Sequence (P19801 20-751): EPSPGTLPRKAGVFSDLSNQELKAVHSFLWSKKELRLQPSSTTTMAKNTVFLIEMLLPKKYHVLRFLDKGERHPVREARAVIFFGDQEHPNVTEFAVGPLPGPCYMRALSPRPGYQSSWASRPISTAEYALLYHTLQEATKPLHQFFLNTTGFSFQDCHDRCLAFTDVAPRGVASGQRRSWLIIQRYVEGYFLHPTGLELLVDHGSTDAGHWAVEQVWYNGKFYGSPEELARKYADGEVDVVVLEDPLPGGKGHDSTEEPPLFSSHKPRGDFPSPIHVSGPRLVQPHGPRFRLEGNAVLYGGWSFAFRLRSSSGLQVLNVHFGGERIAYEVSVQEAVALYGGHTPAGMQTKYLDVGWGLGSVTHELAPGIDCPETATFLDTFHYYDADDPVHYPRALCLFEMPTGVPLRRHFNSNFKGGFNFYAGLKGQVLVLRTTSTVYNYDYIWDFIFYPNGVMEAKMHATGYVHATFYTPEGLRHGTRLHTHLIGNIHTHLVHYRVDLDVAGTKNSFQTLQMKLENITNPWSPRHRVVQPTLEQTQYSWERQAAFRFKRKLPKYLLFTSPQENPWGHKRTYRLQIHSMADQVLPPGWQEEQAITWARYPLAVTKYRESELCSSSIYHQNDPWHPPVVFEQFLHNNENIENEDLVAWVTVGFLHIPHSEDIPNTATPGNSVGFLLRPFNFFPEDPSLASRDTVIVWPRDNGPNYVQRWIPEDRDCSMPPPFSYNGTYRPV
# test_protocol: Activity evaluation on recombinant human DAO (Amplex Red/HRP-coupled assay, 1 mM putrescine substrate)
# Type: biochemical
# condition_context: 1 mM putrescine substrate, read-out: Inhibitory Activity (IC50, nM) DAO
Counter-ions that a name gives are not always drawn.
Please state the figure in nM; there is no need to write the unit.

What does the record list as IC50 for NCC(Cn1ncn(Cc2ccc(-c3cnn(Cc4ccccc4)c3)s2)c1=O)=C(F)F [Example 297, Trifluoroacetate] ?
14800

Subsequent entry: NCC(Cn1ncn(Cc2cc3ccc(-c4ccc(C(F)(F)F)nc4)cc3s2)c1=O)=C(F)F [Example 199, Trifluoroacetate]
15000

Now the compound NCC(Cn1ncn(Cc2cc(-c3cnn(C(F)F)c3)cs2)c1=O)=C(F)F [Example 194, Trifluoroacetate]
64000

Further, for COc1ccc(-c2cnc(-n3cnn(CC(CN)=C(F)F)c3=O)c(C)c2)cn1 [Example 225, Trifluoroacetate] ?
14000

Also CC(C)n1cc(-c2csc(Cn3cnn(CC(CN)=C(F)F)c3=O)c2)cn1 [Example 195, Trifluoroacetate] ?
31000

* * *

# target_system: recombinant human DAO (diamine oxidase) (Homo sapiens, UniProt P19801)
# Construct: purchased R&D systems
# test_protocol: Activity evaluation on recombinant human DAO (Amplex Red/HRP-coupled assay, 1 mM putrescine substrate)
# Assay type: biochemical
# condition_context: 1 mM putrescine, read-out: Inhibitory Activity (IC50, nM) DAO
Structures can show the parent of a compound that is named as a salt.
So I've got a bunch of molecules here, and I need their IC50 values.

Could you share which IC50 value was measured for CN(C)c1ccc(-c2ccc(Cn3cnn(CC(CN)=C(F)F)c3=O)s2)cn1 [Example 112, Trifluoroacetate] ?
> 100000 nM

Further, for NCC(Cn1ncn(Cc2ccc(-c3ccc4c(c3)CCC(=O)N4)s2)c1=O)=C(F)F [Example 133, Trifluoroacetate] ?
> 10000 nM

Now the same for NCC(Cn1ncn(Cc2ccc(C#Cc3cnc4c(c3)NC(=O)CO4)s2)c1=O)=C(F)F [Example 169, Trifluoroacetate]
> 100000 nM

// same read-out, input: Cc1cc(Br)ccc1-n1cnn(CC(CN)=C(F)F)c1=O [Example 6, trifluoroacetate]
> 100000 nM

* * *

# target_system: recombinant human DAO (diamine oxidase) (Homo sapiens, UniProt P19801)
# Construct: purchased R&D systems
# test_protocol: Activity evaluation on recombinant human DAO (Amplex Red/HRP-coupled assay, 1 mM putrescine substrate)
# Type: biochemical
# condition_context: 1 mM putrescine, read-out: Inhibitory Activity (IC50, nM) DAO
# Description: The compounds according to the present technology were evaluated in terms of activity on recombinant human VAP-1 (R&D systems) by measuring the level of hydrogen peroxide in horseradish peroxidase (HRP)-coupled reaction using Amplex Red Hydrogen Peroxide Assay Kit (Molecular Probes, Invitrogen, USA). […] The inhibitory effect of the compounds was measured as a decrease (%) in the signal rate as compared to the control group without any inhibitor (only diluted DMSO). […]
Where a name gives a salt, the structure may show the parent alone.
measurement_type: IC50

GET /values?readout=IC50&item= NCC(Cn1ncn(Cc2ccc(C#Cc3cnc4c(c3)OCC(=O)N4)s2)c1=O)=C(F)F [Example 170, Trifluoroacetate]
> 10000 nM

Could you do the same for NCC(Cn1ncn(CCc2cccs2)c1=O)=C(F)F [Example 172, Trifluoroacetate] , please?
> 100000 nM

Let us now turn to Cc1ccc(Br)nc1-n1cnn(CC(CN)=C(F)F)c1=O [Example 15, Trifluoroacetate]
> 100000 nM

Taken from patent US11168073B2.
